assay-remarks: Total
Type: in vivo, HIV-infected pregnant women
conditions-used: female, human, plasma, po, Cmax, total (bound + unbound); 32 wks (PK3); LPV/RTV 500mg/125mg twice daily; median
observable: Cmax
The answer consists of two parts: a number and, after it, its unit.

Query (compound): CC(C)c1nc(CN(C)C(=O)N[C@H](C(=O)N[C@@H](Cc2ccccc2)C[C@H](O)[C@H](Cc2ccccc2)NC(=O)OCc2cncs2)C(C)C)cs1 [Ritonavir, ritonavir] ; field requested: Cmax 360 ng/mL

====

assay-remarks: Total
Assay type: in vivo, HIV-infected pregnant women
conditions-used: female, human, plasma, po, Cmax, total (bound + unbound); 8 wks postpartum (PK4); LPV/RTV 400mg/100mg twice daily; median
observable: Cmax (ng/mL)
API: value field is a number in ng/mL; no unit string.

Query (compound): `CC(C)c1nc(CN(C)C(=O)N[C@H](C(=O)N[C@@H](Cc2ccccc2)C[C@H](O)[C@H](Cc2ccccc2)NC(=O)OCc2cncs2)C(C)C)cs1` ; field requested: Cmax 620

====

assay-remarks: Total
Assay type: in vivo, HIV-infected pregnant women
conditions-used: female, human, plasma, oral, C12h, total (bound + unbound); 32 wks (PK3); LPV/RTV 500mg/125mg twice daily; median
observable: concentration at 12 h (ng/mL)
API: value field is a number in ng/mL; no unit string.

Query (molecule): `CC(C)c1nc(CN(C)C(=O)N[C@H](C(=O)N[C@@H](Cc2ccccc2)C[C@H](O)[C@H](Cc2ccccc2)NC(=O)OCc2cncs2)C(C)C)cs1` ; field requested: concentration at 12 h 150

====

assay-remarks: Total
Type: in vivo, HIV-infected pregnant women
conditions-used: female, human, plasma, po, Cmax, total (bound + unbound); 20–24 wks (PK1); LPV/RTV 400mg/100mg twice daily; median
observable: Cmax (ng/mL)
API: value field is a number in ng/mL; no unit string.

Query (compound): `CC(C)c1nc(CN(C)C(=O)N[C@H](C(=O)N[C@@H](Cc2ccccc2)C[C@H](O)[C@H](Cc2ccccc2)NC(=O)OCc2cncs2)C(C)C)cs1` ; field requested: Cmax 350

====

// reported AUC(0-t) per item
Assay type: in vivo, HIV-infected pregnant women
conditions-used: female, human, plasma, po, AUC0–12h, protein unbound; 20–24 wks (PK1); LPV/RTV 400mg/100mg twice daily; median
API: value field is a number in ng·h/mL; no unit string.

>>> readout_number("CC(C)c1nc(CN(C)C(=O)N[C@H](C(=O)N[C@@H](Cc2ccccc2)C[C@H](O)[C@H](Cc2ccccc2)NC(=O)OCc2cncs2)C(C)C)cs1 [Ritonavir, ritonavir]")
400

Query (compound): Cc1cccc(C)c1OCC(=O)N[C@@H](Cc1ccccc1)[C@@H](O)C[C@H](Cc1ccccc1)NC(=O)[C@H](C(C)C)N1CCCNC1=O [Lopinavir, lopinavir] ; field requested: AUC(0-t) 1600

====

Assay type: in vivo, HIV-infected pregnant women
conditions-used: female, human, plasma, po, Cmax, protein unbound; 8 wks postpartum (PK4); LPV/RTV 400mg/100mg twice daily; median
observable: Cmax (ng/mL)
API: value field is a number in ng/mL; no unit string.

>>> readout_number("CC(C)c1nc(CN(C)C(=O)N[C@H](C(=O)N[C@@H](Cc2ccccc2)C[C@H](O)[C@H](Cc2ccccc2)NC(=O)OCc2cncs2)C(C)C)cs1")
80

Query (molecule): `Cc1cccc(C)c1OCC(=O)N[C@@H](Cc1ccccc1)[C@@H](O)C[C@H](Cc1ccccc1)NC(=O)[C@H](C(C)C)N1CCCNC1=O` ; field requested: Cmax 280

====

Format: in vivo, HIV-infected pregnant women
conditions-used: female, human, plasma, oral, C12h, protein unbound; 32 wks (PK3); LPV/RTV 500mg/125mg twice daily; median
observable: concentration at 12 h (ng/mL)
API: value field is a number in ng/mL; no unit string.

>>> readout_number("Cc1cccc(C)c1OCC(=O)N[C@@H](Cc1ccccc1)[C@@H](O)C[C@H](Cc1ccccc1)NC(=O)[C@H](C(C)C)N1CCCNC1=O")
120

Please turn your attention to the following entry.
Query (molecule): `CC(C)c1nc(CN(C)C(=O)N[C@H](C(=O)N[C@@H](Cc2ccccc2)C[C@H](O)[C@H](Cc2ccccc2)NC(=O)OCc2cncs2)C(C)C)cs1` ; field requested: concentration at 12 h 20

====

assay-remarks: Total
Format: in vivo, HIV-infected pregnant women
conditions-used: female, human, plasma, oral, C12h, total (bound + unbound); 30 wks (PK2); LPV/RTV 400mg/100mg twice daily; median
observable: concentration at 12 h

Query (compound): `CC(C)c1nc(CN(C)C(=O)N[C@H](C(=O)N[C@@H](Cc2ccccc2)C[C@H](O)[C@H](Cc2ccccc2)NC(=O)OCc2cncs2)C(C)C)cs1` ; field requested: concentration at 12 h 120 ng/mL

====

Assay type: in vivo, HIV-infected pregnant women
conditions-used: female, human, plasma, po, AUC0–12h, protein unbound; 30 wks (PK2); LPV/RTV 400mg/100mg twice daily; median
observable: AUC(0-t)
The answer consists of two parts: a number and, after it, its unit.

Query (compound): `Cc1cccc(C)c1OCC(=O)N[C@@H](Cc1ccccc1)[C@@H](O)C[C@H](Cc1ccccc1)NC(=O)[C@H](C(C)C)N1CCCNC1=O` ; field requested: AUC(0-t) 1600 ng·h/mL

====

// reported Cmax per item
Assay type: in vivo, HIV-infected pregnant women
conditions-used: female, human, plasma, po, Cmax, protein unbound; 20–24 wks (PK1); LPV/RTV 400mg/100mg twice daily; median
API: value field is a number in ng/mL; no unit string.

>>> readout_number("CC(C)c1nc(CN(C)C(=O)N[C@H](C(=O)N[C@@H](Cc2ccccc2)C[C@H](O)[C@H](Cc2ccccc2)NC(=O)OCc2cncs2)C(C)C)cs1")
60

Query (molecule): `Cc1cccc(C)c1OCC(=O)N[C@@H](Cc1ccccc1)[C@@H](O)C[C@H](Cc1ccccc1)NC(=O)[C@H](C(C)C)N1CCCNC1=O` ; field requested: Cmax 180

====

assay-remarks: Total
Assay type: in vivo, HIV-infected pregnant women
conditions-used: female, human, plasma, po, AUC0–12h, total (bound + unbound); 20–24 wks (PK1); LPV/RTV 400mg/100mg twice daily; median
observable: AUC(0-t) (ng·h/mL)
API: value field is a number in ng·h/mL; no unit string.

Query (compound): `CC(C)c1nc(CN(C)C(=O)N[C@H](C(=O)N[C@@H](Cc2ccccc2)C[C@H](O)[C@H](Cc2ccccc2)NC(=O)OCc2cncs2)C(C)C)cs1` ; field requested: AUC(0-t) 2500

====

Assay type: in vivo, HIV-infected pregnant women
conditions-used: female, human, plasma, oral, C12h, protein unbound; 30 wks (PK2); LPV/RTV 400mg/100mg twice daily; median
observable: concentration at 12 h (ng/mL)
API: value field is a number in ng/mL; no unit string.

>>> readout_number("CC(C)c1nc(CN(C)C(=O)N[C@H](C(=O)N[C@@H](Cc2ccccc2)C[C@H](O)[C@H](Cc2ccccc2)NC(=O)OCc2cncs2)C(C)C)cs1 [Ritonavir, ritonavir]")
20

Query (compound): Cc1cccc(C)c1OCC(=O)N[C@@H](Cc1ccccc1)[C@@H](O)C[C@H](Cc1ccccc1)NC(=O)[C@H](C(C)C)N1CCCNC1=O [Lopinavir, lopinavir] ; field requested: concentration at 12 h 100

====

Format: in vivo, HIV-infected pregnant women
conditions-used: female, human, plasma, oral, C12h, protein unbound; 20–24 wks (PK1); LPV/RTV 400mg/100mg twice daily; median
// reported concentration at 12 h per item
API: value field is a number in ng/mL; no unit string.

>>> readout_number("Cc1cccc(C)c1OCC(=O)N[C@@H](Cc1ccccc1)[C@@H](O)C[C@H](Cc1ccccc1)NC(=O)[C@H](C(C)C)N1CCCNC1=O [Lopinavir, lopinavir]")
150

Please turn your attention to the following entry.
Query (molecule): CC(C)c1nc(CN(C)C(=O)N[C@H](C(=O)N[C@@H](Cc2ccccc2)C[C@H](O)[C@H](Cc2ccccc2)NC(=O)OCc2cncs2)C(C)C)cs1 [Ritonavir, ritonavir] ; field requested: concentration at 12 h 20

====

Format: in vivo, HIV-infected pregnant women
conditions-used: female, human, plasma, po, AUC0–12h, protein unbound; 8 wks postpartum (PK4); LPV/RTV 400mg/100mg twice daily; median
// reported AUC(0-t) per item
API: value field is a number in ng·h/mL; no unit string.

>>> readout_number("Cc1cccc(C)c1OCC(=O)N[C@@H](Cc1ccccc1)[C@@H](O)C[C@H](Cc1ccccc1)NC(=O)[C@H](C(C)C)N1CCCNC1=O [Lopinavir, lopinavir]")
2600

Query (compound): CC(C)c1nc(CN(C)C(=O)N[C@H](C(=O)N[C@@H](Cc2ccccc2)C[C@H](O)[C@H](Cc2ccccc2)NC(=O)OCc2cncs2)C(C)C)cs1 [Ritonavir, ritonavir] ; field requested: AUC(0-t) 500
